RLU listing for selected molecules.
Biological target: mouse Tas2r105 (Mus musculus, UniProt Q9JKT4)
Construct: expressed in transfected cells; host or cells: HEK293T-Gα16gust44
Sequence (Q9JKT4 whole entry): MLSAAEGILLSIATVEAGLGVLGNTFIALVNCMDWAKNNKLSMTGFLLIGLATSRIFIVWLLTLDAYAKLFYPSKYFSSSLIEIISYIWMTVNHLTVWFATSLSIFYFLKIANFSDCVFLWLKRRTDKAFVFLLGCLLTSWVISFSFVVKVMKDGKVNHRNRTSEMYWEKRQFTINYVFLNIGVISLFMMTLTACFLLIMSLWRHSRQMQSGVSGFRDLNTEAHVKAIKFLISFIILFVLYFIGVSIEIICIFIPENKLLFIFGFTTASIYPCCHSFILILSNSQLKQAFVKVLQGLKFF
Assay: Calcium imaging assay (FLIPR), HEK293T-Gα16gust44 cells transfected with mouse Tas2r105
Format: cell-based
Settings: Time 130.781 s

| compound.structure | assayed.system | unit.abbreviation | RLU |
| --- | --- | --- | --- |
| C[C@H](CCC(=O)O)[C@H]1CC[C@H]2[C@@H]3[C@H](O)C[C@@H]4C[C@H](O)CC[C@]4(C)[C@H]3C[C@H](O)[C@]12C | mouse Tas2r105 (Mus musculus, UniProt Q9JKT4) | RLU | 535.938 |
| C[C@H](CCC(=O)O)[C@H]1CC[C@H]2[C@@H]3CC[C@@H]4C[C@H](O)CC[C@]4(C)[C@H]3CC[C@]12C | mouse Tas2r105 (Mus musculus, UniProt Q9JKT4) | RLU | 309.382 |
| C[C@H](CCC(=O)NCC(=O)O)[C@H]1CC[C@H]2[C@@H]3[C@H](O)C[C@@H]4C[C@H](O)CC[C@]4(C)[C@H]3C[C@H](O)[C@]12C | mouse Tas2r105 (Mus musculus, UniProt Q9JKT4) | RLU | 519.565 |
| C[C@H](CCC(=O)O)[C@H]1CC[C@H]2[C@@H]3CC[C@@H]4C[C@H](O)CC[C@]4(C)[C@H]3C[C@H](O)[C@]12C | mouse Tas2r105 (Mus musculus, UniProt Q9JKT4) | RLU | 180.418 |
